This collection of values is drawn from PubChem BioAssay AID434970.

- System: intestinal alkaline phosphatase [Mus musculus]
- EXPERIMENTAL PROTOCOL: mouse intestinal phosphatase enzyme activation – biochemical, luminescence, single concentration, confirmation (AID 434970)
- STUDY CONDITIONS: purified mouse IAP, CDP-Star luminescence, 30 min, at 10 µM; stronger effect = lower value
The whole screen tested about 11,000 compounds, of which about 310 (2.8%) were called active. The list comes from a sample in which actives are over-represented; it also holds close analogues and randomly drawn compounds.
READOUT: activity change, negative = activation (%)
One number for each entry, in %.

Example entries begin here.
COMPOUND	TARGET OR TEST SYSTEM	SCALE UNIT	VALUE
COc1ccc(NC(=O)CCS(=O)(=O)c2cccc3nonc23)c(OC)c1	intestinal alkaline phosphatase [Mus musculus]	%	5.5
COCC(=O)NC1CC2CCCC(C1)N2Cc1ccccc1 (configuration not stated)	intestinal alkaline phosphatase [Mus musculus]	%	-8.2
COc1ccc(NC(=O)NC2CC3CCCC(C2)N3Cc2ccccc2)cc1 (configuration not stated)	intestinal alkaline phosphatase [Mus musculus]	%	-171
COc1cccc(C(=O)NC2CCN(C(=O)N3CCCCC3)CC2)c1	intestinal alkaline phosphatase [Mus musculus]	%	-9.3

Batch: activity change, negative = activation for all items listed.
1. COc1ccc(OC)c(NC(=O)C(=O)/C=C(\O)c2cc(OC)ccc2OC)c1
2. CC(C)C(NC(=S)NCc1ccccc1)C(=O)O (configuration not stated)
3. O=C(NC1CCN(Cc2ccc(Cl)cc2)CC1)c1cn(-c2ccccc2)nc1-c1cccnc1
4. CC(C)n1cc(CN2CCC(C(=O)Nc3cccc(-c4cccc(Cl)c4)c3)CC2)cn1
5. O=C(Nc1ccc(Cl)c(C(F)(F)F)c1)NC1CC2CCCC(C1)N2Cc1ccccc1 (configuration not stated)
6. Cc1ccc(CN2CCC(C(=O)Nc3cccc(-c4cccc(F)c4)c3)CC2)o1

1. 9.55
2. 7
3. -60.3
4. -297
5. -669
6. -48.2

Would you mind listing activity change, negative = activation for each of the following compounds?
1. CCn1cc(CN2CCC(C(=O)Nc3cccc(-c4cccc(F)c4)c3)CC2)cn1
2. COc1cc(NC(=O)CCN2CCN(Cc3ccccc3)CC2)cc(OC)c1
3. COc1cccc(NC(=O)N2CCCC2C(=O)NC(C)C)c1 (configuration not stated)
4. Cc1cc(C)cc(NC(=S)NCc2ccc3c(c2)OCO3)c1
5. CCN1CCN(CCC(=O)Nc2cccc(OC)c2)CC1

1. -166
2. 2.15
3. 2.9
4. -80.9
5. 7.45

Required: activity change, negative = activation, one value per compound below.
1. Cn1cc(CN2CCC(C(=O)Nc3cccc(-c4cccc(F)c4)c3)CC2)cn1
2. CC(=O)c1cccc(NC(=O)NC(C)C2CCCO2)c1 (configuration not stated)
3. COc1cccc(C(=O)NC2CC3CCCC(C2)N3CC(=O)Nc2ccc(N(C)C)cc2)c1 (configuration not stated)

-129
-12.2
1

Dear reader, for each entry below, please note its activity change, negative = activation.
1. CC(=O)NC1CC2CCCC(C1)N2C(=O)Nc1ccc(Cl)c(C(F)(F)F)c1 (configuration not stated)
2. Cc1nn(Cc2ccc(Cl)c(Cl)c2)c(C)c1NC(=O)c1cn(-c2ccccc2)nc1-c1ccccc1
3. CCn1c2ccccc2c2cc(NC(=O)C3CCN(S(=O)(=O)c4cccs4)CC3)ccc21

-13
-162
-52.7

Entry under review: O=C(NCc1ccccc1)NC1CC2CCC(C1)N2Cc1ccco1 (configuration not stated) . Reported activity change, negative = activation?
-7.85
